target: Hexose transporter 1 (Plasmodium falciparum); test: ST_JUDE_LEISH: Cytotoxicity at 2uM final concentration against transgenic Leishmania Mexicana promastigotes LmPfHT that are glucose transport deficient and complemented with the Plasmodium falciparum hexose transporter. Activity is measured by DNA content using SYBR green in vitro; format: functional
Quick reference for inhibition among some compounds
Answer with a number only, understood to be in %.

Recorded results for 8 compounds are shown here.
COc1ccc2nccc([C@@H](O)CN3CCC(NCc4cc5sccc5nc4C(F)(F)F)CC3)c2c1 ... 1.89
O=C(Nc1cccc(-c2nn3ccccc3c2-c2ccnc(Nc3cccc(C(F)(F)F)c3)n2)c1)c1c(F)cccc1F ... 1.06
Cc1ccc(Oc2ncccc2C(=O)Nc2cccc3cccnc23)c(C)c1 ... -0.84
Cc1ccc(-c2cc(C(=O)Nc3ccc(S(=O)(=O)N4CCCCC4)cc3)[nH]n2)c(O)c1 ... 1.9
Cc1noc(C)c1-c1ccc2c(Nc3ccc(C(F)(F)F)cc3)c(C(N)=O)cnc2c1 ... 3.21
Cn1cnc(CCNC(=O)c2ccc(-c3cccc(-c4nc5cc(C(F)(F)F)ccc5[nH]4)c3)cc2)c1 ... 4.43
C=CCn1c(Sc2ccc(C#N)c([N+](=O)[O-])c2)nnc1-c1ccc(Cl)cc1 ... 5.18
Cc1ccc(C2(CN3CCC(NC(=O)c4n[nH]cc4Cl)CC3)CCCCC2)cc1 ... 0.31

// next entry
Exercise: API: value(readout=inhibition, system=Hexose transporter 1 (Plasmodium falciparum)) for record `Cc1ccc(NC(=O)N2CCC(n3c(-c4ccccc4)nc4cccnc43)CC2)cc1F`
Key: 7.11
